Reference source: ChEMBL document CHEMBL4689842

- Test system: Fibroblast
- Assay text: Multiplex assay against human fibroblast
- Assay type: toxicity, cell-based
- Test parameters: 12 h, 10 µM, compound concentration 10 uM, replicate 2
Readout kind: Population Mitochondria Different-Phenotype (%)
Use % as the unit, but write only the number.

Recorded Population Mitochondria Different-Phenotype (%), per entry:
{"columns": ["Compound", "Readout number"],
 "data": [
  ["COc1cc(N2CCN(C)CC2)ccc1Nc1ncc2c(n1)N(C)c1ccccc1C(=O)N2C", 96],
  ["NC(=O)c1cccc(-c2cc(Nc3ccc(OC(F)(F)F)cc3)ncn2)c1", 44]
]}

Here is the next item to consider.
Short answer for CCOc1cc2ncc(C#N)c(Nc3ccc(OCc4ccccn4)c(Cl)c3)c2cc1NC(=O)/C=C/CN(C)C [NERATINIB] : Population Mitochondria Different-Phenotype (%) was 16
